GI50 values for the compounds below.
- Test system: U-251
- experimental_protocol: NCI tumour cell line growth inhibition, 48 h
The source made the active and inactive calls. Rule as the data show it: active = GI50 up to about 1.1 µM and inactive = higher.

Assign GI50 to the following record: COc1cc(/C=C2/CCCc3ccccc3C2=O)cc(OC)c1OC
15.5 µM (inactive)

Give the reported value of GI50 for this record: CCCCCCCCCCCCCCCCCCNc1ccn(C2OC(CO)C(OP(=O)(O)OCC(O)COP(=O)(O)OCC3OC(n4cc(F)c(NCCCCCCCCCCCCCCCCCC)nc4=O)CC3O)C2O)c(=O)n1 (stereo not drawn)
> 50 µM (inactive)

Tell me measured GI50 for COc1cc([C@@H]2OC(=O)C3C2C(=O)O[C@H]3c2ccc(O)c(OC)c2)ccc1O (stereo partly drawn) please.
> 100 µM (inactive)

Give GI50 for the following compound: O=CC1OC(=O)c2cc(O)c(O)c(O)c2-c2c(cc(O)c(O)c2O)C(=O)OC1C1OC(=O)c2cc(O)c(O)c(O)c2-c2c(O)c(O)c3oc(=O)c4c(c(O)c(O)c5oc(=O)c2c3c54)-c2c(cc(O)c(O)c2O)C(=O)OCC1O (stereo not drawn)
17.9 µM (inactive)

Identify GI50 associated with the compound COC(=O)/C(=N\NC(=S)NN)C(C(=O)C(=O)Nc1ccccc1C(N)=O)c1nc2ccccc2nc1O (stereo not drawn)
> 100 µM (inactive)

Answer with the recorded GI50 for the compound listed here: O=[N+]([O-])c1cc(I)cc(/C=N/NS(=O)(=O)c2ccc(F)cc2)c1O
22.4 µM (inactive)

For the compound CN(Cc1cnc2nc(N)nc(N)c2n1)c1ccc(C(=O)NCCCS(=O)(=O)O)cc1 , give its measured GI50 value.
> 100 µM (inactive)

Assign GI50 to the following record: NC(C(=O)OC(=O)c1ccccc1)C(=O)OC(=O)c1ccccc1
> 100 µM (inactive)

Consider the compound CC(C)=CCC/C(C)=C/CC/C(C)=C/Cc1c(O)c2ccccc2oc1=O and give its recorded GI50.
57.9 µM (inactive)

Give the measured GI50 for CN/N=C(/CC(=O)c1sc(NNC(C)=O)nc1C)C(=O)Nc1ccc(OC)cc1OC
> 100 µM (inactive)

Report GI50, nothing else, for this compound: N#C[C@H](c1ccccn1)c1nc2ccccc2nc1Cl
> 100 µM (inactive)

----------
- Test system: CAKI-1
- experimental_protocol: NCI tumour cell line growth inhibition, 48 h
Calls of active or inactive are those of the source. No stated cut-off is given here; in the data, active = GI50 up to about 1.1 µM and inactive = higher.
Can you answer with just one of these options? 1 = active, -1 = inactive

GET /call?item= CC[C@@]1(O)C(=O)OCc2c1cc1n(c2=O)Cc2c-1nc1ccc(O)cc1c2[Si](C)(C)C(C)(C)C [AR-67] returns the recorded outcome of this test.
1

Could you please tell me the result logged for FC(F)(F)c1nc(Br)[nH]c1C(F)(F)F in this assay?
-1

----------
The entries below are paired with their reported GI50.
- System: HT-29
- experimental_protocol: NCI tumour cell line growth inhibition, 48 h
Active and inactive are the calls of the source. Cut-off read from the data, not from the text of the source: active = GI50 up to about 1.1 µM and inactive = higher.

>  <molecule>
CC1OC(OC2C(OC(=O)[C@]34CCC(C)(C)CC3C3=CCC5[C@@]6(C)C[C@H](O)[C@H](OC7OC(COC8OC(CO)C(O)C(O)C8O)C(O)C(O)C7O)[C@@](C)(C(=O)O)C6CC[C@@]5(C)C3(C)CC4)OCC(O)C2O)C(O)C(O)C1OC1OCC(O)C(O)C1O (stereo partly specified)

>  <GI50>
> 100 µM (inactive)

$$$$
>  <molecule>
CC(=O)CCn1ncc(Cl)c(Cl)c1=O

>  <GI50>
14.1 µM (inactive)

$$$$

Return GI50 (reported value) for this molecule: CCOC(=O)c1csc(NC(=O)CN2CCCC2)n1
> 100 µM (inactive)

Give GI50 for O=C(O)/C(=C/C=C/c1ccccc1)c1csc(-c2nc(/C(=C\C=C\c3ccccc3)C(=O)O)cs2)n1
38.2 µM (inactive)

Answer with the recorded GI50 for the molecule listed here: C/C(=N\Nc1cc(CN2CCCC2)c(-c2ccc(Cl)cc2)nn1)C(=O)O
> 100 µM (inactive)

State its GI50 for this molecule: COc1ccc2[nH]cc(CCNC(C)=O)c2c1
69 µM (inactive)

Fill in reported GI50 for this entry: CC(C(=O)n1ccnc1)N1c2ccccc2Sc2ccccc21 (stereo unspecified)
90.4 µM (inactive)

----------
- System: NCI-H460
- experimental_protocol: NCI tumour cell line growth inhibition, 48 h
Active and inactive are the calls of the source. No stated cut-off is given here; in the data, active = GI50 up to about 1.1 µM and inactive = higher.
Entries and their GI50

Previously resolved entries follow.
>  <structure_smiles_string>
FC(F)(F)c1nc(Br)[nH]c1C(F)(F)F

>  <readout_value>
> 100 µM (inactive)

$$$$
>  <structure_smiles_string>
c1ccc(-c2cc(-c3cccs3)c(-c3cccs3)s2)cc1

>  <readout_value>
56.8 µM (inactive)

$$$$

Using known records, supply GI50 for COc1cc(/C=C2/CCCc3ccccc3C2=O)cc(OC)c1OC
20.8 µM (inactive)

----------
- Test system: NCI/ADR-RES
- experimental_protocol: NCI tumour cell line growth inhibition, 48 h
Calls of active or inactive are those of the source. No stated cut-off is given here; in the data, active = GI50 up to about 1.1 µM and inactive = higher.
measured_metric: GI50

>  <compound>
CCOC(=O)c1cn(-c2ccc([N+](=O)[O-])cc2)c(=S)n2c1nc1ccccc12

>  <readout_value>
20.8 µM (inactive)

$$$$
>  <compound>
CCOC(=O)c1cc(C2CCN(c3ccccc3)C2=O)c(C(=O)/C=C(/C)N)[nH]1 (stereo not drawn)

>  <readout_value>
44 µM (inactive)

$$$$

Supply GI50 measured with NCI/ADR-RES for Clc1ccc(-c2cn3c(nc4ccccc43)c(-c3ccccc3)n2)cc1 .
34.9 µM (inactive)

----------
- Tested on: COLO 205
- experimental_protocol: NCI tumour cell line growth inhibition, 48 h
The source made the active and inactive calls. No stated cut-off is given here; in the data, active = GI50 up to about 1.1 µM and inactive = higher.
// reported GI50 per item

Worked examples follow.
>  <compound>
CC1(C)CNC(=O)C2(CCCO2)CNC(C)(C)CNC(=O)C2(CCCO2)CN1 (stereo not given)

>  <measured_metric>
GI50

>  <readout_value>
> 10 µM (inactive)

$$$$
>  <compound>
COc1cc2cc(C(=O)N3C[C@H](CCl)c4c3cc(N)c3ccccc43)[nH]c2c(OC)c1OC

>  <measured_metric>
GI50

>  <readout_value>
0.0173 µM (active)

$$$$
>  <compound>
CC(=O)O[C@H]1CC[C@@]2(C)[C@H](CC[C@@H]3[C@@H]2CC[C@]2(C)[C@@H](c4ccc(=O)oc4)C[C@H]4O[C@]342)C1

>  <measured_metric>
GI50

>  <readout_value>
3.15 µM (inactive)

$$$$
>  <compound>
COc1cc([C@@H]2OCC3C(c4ccc5c(c4)OCO5)OCC32)cc(OC)c1OC (stereo not given in full)

>  <measured_metric>
GI50

>  <readout_value>
> 100 µM (inactive)

$$$$
>  <compound>
O=C(c1ccccc1)c1cc(Cl)ccc1NCn1nnc2ccccc21

>  <measured_metric>
GI50

>  <readout_value>
64.6 µM (inactive)

$$$$
>  <compound>
CCOC(=O)c1csc(NC(=O)CCN2CCN(C)CC2)n1

>  <measured_metric>
GI50

>  <readout_value>
> 100 µM (inactive)

$$$$
>  <compound>
N#Cc1c(-c2ccccc2)c(CN2CCCCC2)c(=O)n2c1[nH]c1ccccc12

>  <measured_metric>
GI50

>  <readout_value>
25.6 µM (inactive)

$$$$
>  <compound>
COc1ccccc1OCc1nnc(SCC(=O)O)n1-c1ccccc1

>  <measured_metric>
GI50

>  <readout_value>
> 100 µM (inactive)

$$$$
>  <compound>
NC(C(=O)OC(=O)c1ccccc1)C(=O)OC(=O)c1ccccc1

>  <measured_metric>
GI50

>  <readout_value>
> 100 µM (inactive)

$$$$
>  <compound>
CN(C)c1ccc(/C=C2\N=C(c3ccccc3)N(c3nc4c(Cl)cc(Cl)cc4s3)C2=O)cc1

>  <measured_metric>
GI50

>  <readout_value>
55.8 µM (inactive)

$$$$

Quickly give me recorded GI50 for CC12CCC3[C@@H](CC3(C)C)C(O)(CCC1=O)C2 (stereo not given in full)
> 100 µM (inactive)

Answer with the recorded GI50 of Oc1ccc(-c2nc(-c3cccnc3)c(-c3ccc(F)cc3)[nH]2)cc1 only.
19.5 µM (inactive)

Output GI50 of Cc1ccc(S(=O)(=O)N/N=C2\C3CC4CC(C3)C2C4)cc1 (stereo not given)
> 100 µM (inactive)

For the compound C=C(C)C1Cc2c(cc(OC)c3c(=O)c4cccc(O)c4oc23)O1 (stereo not given) , give its measured GI50 value.
56.9 µM (inactive)

Give recorded GI50. O=C1O[C@H]2[C@H](O)[C@@H](OC(=O)c3cc(O)c(O)c4c3[C@@H]3C1=CC(=O)C(O)(O)C3(O)O4)[C@H](OC(=O)c1cc(O)c(O)c(O)c1)O[C@@H]2CO (stereo not given in full)
99.3 µM (inactive)

Indicate the recorded GI50 value for this compound: CCOc1cc2cnc3c4cc(OC)c(OC)cc4ccc3c2cc1OC
4.92 µM (inactive)

Check the records and state GI50 for CSc1ncc2c(C#N)c3sc4ccccc4n3c(=O)c2n1
> 100 µM (inactive)

State, in one line, measured GI50 of N#C/C(C(=S)NCc1ccccc1)=C(/N)N1CCCC1
> 100 µM (inactive)
